The values you see were collected from patent US20090280138A1.

# test.target: T1, MHC class I molecule A*0201 (biotin (bound to streptavidin-coated plate))
# T1 construct: iTopia monomer stripped of placeholder peptide and b2M, then reconstituted with test peptide and fresh b2M; also called A2; HLA-A2
# assay.notes: iTopia peptide binding assay
endpoint.label: binding, % of positive control peptide

INSERT INTO measurements (binder, measurement) VALUES
  ('ADMVTWLKE [5T4 9-mer peptide 152 (ADMVTWLKE)]', '6 % of positive control'),
  ('NNSLVSLTY [5T4 9-mer peptide 122 (NNSLVSLTY)]', '12 % of positive control'),
  ('LTCAYPEKM [5T4 9-mer peptide 161 (LTCAYPEKM)]', '40 % of positive control'),
  ('DLDCDPILP [5T4 9-mer peptide 171 (DLDCDPILP)]', '0 % of positive control'),
  ('LELNSADLD [5T4 9-mer peptide 168 (LELNSADLD)]', '3 % of positive control'),
  ('CAYPEKMRN [5T4 9-mer peptide 162 (CAYPEKMRN)]', '11 % of positive control'),
  ('INADPRLTN [5T4 9-mer peptide 203 (INADPRLTN)]', '3 % of positive control'),
  ('DPILPPSLQ [5T4 9-mer peptide 173 (DPILPPSLQ)]', '7 % of positive control');
